- Assay explanation: Brain distribution study
- Assay type: in vivo, male C57BL/6 mice
- Assay conditions: male, C57BL/6, mouse, brain/plasma, po, 20 mg/kg, PO 20 mg/kg, male C57BL/6 mice, 0.75 hr; read-out: Brain Concentration/Plasma Concentration, Individuals
Assay readout: Kp at 0.75 hr
Just the number, please, no unit after it.

CNC(=O)c1ncn2c(=O)n(CCF)nnc12 [Compound I-1]; 0.575

Would you kindly look at the next entry?
Briefly, Kp at 0.75 hr measured for NC(=O)c1ncn2c(=O)n(CCF)nnc12 [KL-50] : 0.344

====

- Assay explanation: Brain distribution study
- Format: in vivo, male C57BL/6 mice
- Assay conditions: male, C57BL/6, mouse, brain, po, 20 mg/kg, PO 20 mg/kg, male C57BL/6 mice, 0.167 hr; read-out: brain Concentration, Individuals
- Experimental: Compound KL50 dosing solution: 3.39% DMSO+96.61% (10% HP-β-CD in saline) at 2 mg/mL; • 1) Weigh 17.39 mg of compound KL50 into a clean tube. • 2) Add 0.295 mL DMSO into the tube containing the compound. • 3) Vortex the tube for 3 min and sonicate it for 4 min. • 4) Add 8.400 mL 10% HP-β-CD in saline into the tube and vortex the tube for 3 min. […]
Assay readout: concentration at 0.167 hr (ng/g)
Express it in ng/g; write the number only.

CNC(=O)c1ncn2c(=O)n(CCF)nnc12; 5420

According to the records, this molecule `NC(=O)c1ncn2c(=O)n(CCF)nnc12` displays concentration at 0.167 hr of 3180

====

Entries and their Kp at 0.333 hr
- Assay explanation: Brain distribution study
- Format: in vivo, male C57BL/6 mice
- Assay conditions: male, C57BL/6, mouse, brain/plasma, po, 20 mg/kg, PO 20 mg/kg, male C57BL/6 mice, 0.333 hr, N=3; read-out: Brain Concentration/Plasma Concentration, Mean
Lab note: record just the number, no unit beside it.

CNC(=O)c1ncn2c(=O)n(CCF)nnc12; 0.606

Sure, the documented Kp at 0.333 hr for `NC(=O)c1ncn2c(=O)n(CCF)nnc12` is 0.203

====

- Assay explanation: Pharmacokinetic study, plasma
- Assay type: in vivo
- Assay conditions: mouse; plasma, PO 20 mg/kg, male C57BL/6 mice
- Procedure: Compound KL50 dosing solution: 3.39% DMSO+96.61% (10% HP-β-CD in saline) at 2 mg/mL; • 1) Weigh 17.39 mg of compound KL50 into a clean tube. • 2) Add 0.295 mL DMSO into the tube containing the compound. • 3) Vortex the tube for 3 min and sonicate it for 4 min. • 4) Add 8.400 mL 10% HP-β-CD in saline into the tube and vortex the tube for 3 min. […]
Assay readout: Cmax (ng/mL)
A number alone suffices; assume ng/mL.

NC(=O)c1ncn2c(=O)n(CCF)nnc12 [KL-50]; 25300

The measured Cmax associated with CNC(=O)c1ncn2c(=O)n(CCF)nnc12 [Compound I-1] reads 20700

====

- Assay explanation: Brain distribution study
- Format: in vivo, male C57BL/6 mice
- Assay conditions: male, C57BL/6, mouse, brain/plasma, po, 20 mg/kg, PO 20 mg/kg, male C57BL/6 mice, 4 hr, N=3; read-out: Brain Concentration/Plasma Concentration, Mean
Assay readout: Kp at 4 hr
# respond with the number and nothing more

Briefly, Kp at 4 hr measured for NC(=O)c1ncn2c(=O)n(CCF)nnc12 [KL-50] : 0.231
